Consider the following binders and their measured EC50 (read off the curve) readings.
- target system: T1, human DLL4 extracellular domain protein, His-tagged (R&D System Cat: 1506-D4/CF) (human, UniProt Q9NR61 27-522)
- T1 construct: range 27-522; Bought protein; also called hDLL4-His; human DLL4-His; not shown: C-terminal histidine tag
- T1 sequence (Q9NR61 27-522 limits assumed): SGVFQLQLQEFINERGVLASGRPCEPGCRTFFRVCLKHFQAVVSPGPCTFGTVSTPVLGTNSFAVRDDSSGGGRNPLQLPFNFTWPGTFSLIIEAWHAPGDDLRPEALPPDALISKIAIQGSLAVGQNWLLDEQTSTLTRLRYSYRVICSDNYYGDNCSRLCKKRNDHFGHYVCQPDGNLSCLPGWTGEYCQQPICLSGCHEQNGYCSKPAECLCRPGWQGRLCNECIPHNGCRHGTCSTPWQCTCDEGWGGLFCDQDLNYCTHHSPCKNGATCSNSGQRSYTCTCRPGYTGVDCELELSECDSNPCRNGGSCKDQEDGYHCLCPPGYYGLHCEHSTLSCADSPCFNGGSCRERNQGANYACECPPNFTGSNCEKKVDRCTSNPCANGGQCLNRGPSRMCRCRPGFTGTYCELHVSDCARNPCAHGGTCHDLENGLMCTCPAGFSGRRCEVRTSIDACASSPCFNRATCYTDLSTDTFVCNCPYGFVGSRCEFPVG
- procedure summary: ELISA, plate coated with hDLL4-His 2 ug/ml, bound antibody detected with HRP-conjugated anti-Fab
property: EC50 (read off the curve)

* MLCK-1 (antibody, V domains shown, Human monoclonal antibody from a phage scFv library; Only the variable regions are tied to the clone; In flow cytometry it was detected with an anti-human IgG Fc-specific antibody, so it carries a human Fc; also called anti-DLL4 antibody) VH: EVQLLESGGGLVQPGGSLRLSCAASGFTFSDYAMSWVRQAPGKGLEWVSWIYSDDGNKYYADSVKGRFTISRDNSKNTLYLQMNSLRAEDTAVYYCARADPPFDYWGQGTLVTVSS VL: QSVLTQPPSASGTPGQRVTISCTGSSSNIGSNNVSWYQQLPGTAPKLLIYSDNNRPSGVPDRFSGSKSGTSASLAISGLRSEDEADYYCATWDSSLNGYVFGGGTKLTVL | ~0.1 pM
* MLCK-3 (antibody, V domains shown, Human monoclonal antibody from a phage scFv library; Only the variable regions are tied to the clone; In flow cytometry it was detected with an anti-human IgG Fc-specific antibody, so it carries a human Fc; also called anti-DLL4 antibody) VH: EVQLLESGGGLVQPGGSLRLSCAASGFTFSDYAMSWVRQAPGKGLEWVSWIYYDSGSKYYADSVKGRFTISRDNSKNTLYLQMNSLRAEDTAVYYCARADLPFDYWGQGTLVTVSS VL: QSVLTQPPSASGTPGQRVTISCSGSSSNIGNNAVTWYQQLPGTAPKLLIYSDNHRPSGVPDRFSGSKSGTSASLAISGLRSEDEADYYCGTWDASLSGYVFGGGTKLTVL | ~0.05 pM
* MLCK-4 (antibody, V domains shown, Human monoclonal antibody from a phage scFv library; Only the variable regions are tied to the clone; In flow cytometry it was detected with an anti-human IgG Fc-specific antibody, so it carries a human Fc; also called anti-DLL4 antibody) VH: EVQLLESGGGLVQPGGSLRLSCAASGFTFSNYAMSWVRQAPGKGLEWVSWIYHGGGDTYYADSVKGRFTISRDNSKNTLYLQMNSLRAEDTAVYYCARGPNYTFGKPFDYWGQGTLVTVSS VL: QSVLTQPPSASGTPGQRVTISCRGSPSNIGNNTVYWYQQLPGTAPKLLIYSDSQRPSGVPDRFSGSKSGTSASLAISGLRSEDEADYYCGSWDYSLSAYVFGGGTKLTVL | ~0.2 pM
* MLCK-2 (antibody, V domains shown, Human monoclonal antibody from a phage scFv library; Only the variable regions are tied to the clone; In flow cytometry it was detected with an anti-human IgG Fc-specific antibody, so it carries a human Fc; also called MLCK-2 mAb; anti-DLL4 antibody) VH: EVQLLESGGGLVQPGGSLRLSCAASGFTFSDYAMSWVRQAPGKGLEWVSWIYSGSGNKYYADSVKGRFTISRDNSKNTLYLQMNSLRAEDTAVYYCARADWPFDYWGQGTLVTVSS VL: QSVLTQPPSASGTPGQRVTISCTGSSSNIGSNDVTWYQQLPGTAPKLLIYADSKRPSGVPDRFSGSKSGTSASLAISGLRSEDEADYYCGTWDYSLSAYVFGGGTKLTVL | ~0.04 pM
